- Tested on: McpC ligand-binding domain (Salmonella Typhimurium SL1344)
- TEST_METHOD_NOTES: protein melting temperature (Tm) in presence of compound (degrees C); higher = more thermal stabilisation (possible ligand binding)
- ASSAY_CONDITIONS: Biolog plate: PM04A; compound stock concentration: 10-20 mM, 2 uL in 10 uL reaction
For each entry below, report its protein melting temperature value.
Number only, please.

Which protein melting temperature is listed for C[S+]([O-])CC[C@H](N)C(=O)O (stereo partly drawn) [L-Methionine Sulfoxide] ?
43.6

How about this molecule: NC(=O)CCCCC1CCSS1 (racemic) [DL-Lipoamide]
44.4

How about this molecule: Cc1cn([C@H]2C[C@H](O)[C@@H](COP(=O)(O)O)O2)c(=O)[nH]c1=O [Thymidine 5`-Monophosphate]
43.7

How about this molecule: C[C@@H](OP(=O)(O)O)[C@H](N)C(=O)O [O-Phospho-L-Threonine]
44

How about this molecule: O=S(=O)(O)SSS(=O)(=O)O [Tetrathionate]
42.7

How about this molecule: N[C@@H](CS(=O)(=O)O)C(=O)O [L-Cysteic acid]
43.1

How about this molecule: O=S(O)(O)=S [Thiosulfate]
42.8

How about this molecule: NCCOP(=O)(O)O [O-Phosphoryl-Ethanolamine]
43.9

How about this molecule: C[N+](C)(C)CCOP(=O)(O)O [Phosphoryl Choline]
43.7

How about this molecule: NCCS(=O)(=O)O [Taurine]
44.2

* * *

- Test system: McpC ligand-binding domain (Salmonella Typhimurium SL1344)
- TEST_METHOD_NOTES: protein melting temperature (Tm) in presence of compound (degrees C); higher = more thermal stabilisation (possible ligand binding)
- ASSAY_CONDITIONS: Biolog plate: PM05; compound stock concentration: 10-20 mM, 2 uL in 10 uL reaction
For each entry below, report its protein melting temperature value.
Number only, please.

Which protein melting temperature is listed for C[N+](C)(C)CC(O)CC(=O)[O-] (racemic) ?
43.7

How about this compound: CCC(=O)C(=O)O
44

How about this compound: O=C(O)c1cc(C(=O)O)c2c(n1)C(=O)C(=O)c1cc(C(=O)O)[nH]c1-2
43

How about this compound: NCCCCNCCCN
41.1

How about this compound: O=c1ccn([C@H]2C[C@H](O)[C@@H](CO)O2)c(=O)[nH]1
44.4

* * *

- System: McpC ligand-binding domain (Salmonella Typhimurium SL1344)
- TEST_METHOD_NOTES: protein melting temperature (Tm) in presence of compound (degrees C); higher = more thermal stabilisation (possible ligand binding)
- ASSAY_CONDITIONS: Biolog plate: PM03B; compound stock concentration: 10-20 mM, 2 uL in 10 uL reaction
MEASURED_ENDPOINT: protein melting temperature
Number only, please.

Which protein melting temperature is listed for C[C@@H](O)[C@H](N)C(=O)O [L-Threonine] ?
44.8

How about this molecule: CCN [Ethylamine]
44.7

How about this molecule: CC(C)C[C@H](N)C(=O)O [L-Leucine]
44.8

How about this molecule: N=C(N)NCCC[C@H](N)C(=O)O [L-Arginine]
45.4

How about this molecule: C[C@H](N)C(=O)N[C@@H](CC(=O)O)C(=O)O [Ala-Asp]
45

How about this molecule: CN [Methylamine]
45.8

How about this molecule: NCCc1c[nH]cn1 [Histamine]
45.1

How about this molecule: CC(C)[C@@H](N)C(=O)O [D-Valine]
44.7

How about this molecule: CSCC[C@H](NC(=O)CN)C(=O)O [Gly-Met]
45.2

How about this molecule: Nc1nc2[nH]cnc2c(=O)[nH]1 [Guanine]
44.7

How about this molecule: CC(=O)N[C@H]1C(O)O[C@H](CO)[C@H](O)[C@@H]1O (stereo partly drawn) [N-Acetyl-D-Galactosamine]
44.6

How about this molecule: NC(=O)[C@H]1O[C@@H](O)[C@H](O)[C@@H](O)[C@@H]1O [Glucuronamide]
45.7

The reported measurements were obtained from the supplement of paper PMC7806825.
